# Percent Effect listing for each entry below
System: Leishmania donovani
Assay: Leishmania intramacrophage assay
Format: functional, organism-based
Set-up: scale not given: in the data most compounds retested in dose-response had high values
Conditions: 30.3 µM; […]
Screen size: about 69,000 compounds; about 1,000 (1.4%) showed an effect of 50% or more. The entries come from a sample that favours strong results as a whole.
Could you give me the number in %? Just the number is fine.

Asked: Can you look up the measured Percent Effect of `CN1CCC(n2nc(Cc3cccc(Cl)c3)nc2Cn2ccnc2)CC1` for me?
Given back: 15.54

----------
Test system: Leishmania donovani
Test: Leishmania intramacrophage assay
Type: functional, organism-based
Parameters: scale not given: in the data most compounds retested in dose-response had high values
Details: 30.3 µM; […]
The campaign covered roughly 69,000 compounds. About 1,000 (1.4%) showed an effect of 50% or more. The sample holds strong results, similar compounds and a random draw of the others, so the mix is not that of the screen.
Measurement Type: Percent Effect (%)
Could you give me the number in %? Just the number is fine.

# count of solved cases: 4
Molecule: Cc1ccc(CN2CCn3c(COc4cccnc4)cnc3C2C)o1.O=C(O)C(F)(F)F.O=C(O)C(F)(F)F (stereo not given)
Measure Unit: %
Percent Effect: -4.64
--
Molecule: Cc1noc(CN(C)C(=O)c2n[nH]c(N)c2-c2ccccc2)n1
Measure Unit: %
Percent Effect: -0.6486
--
Molecule: CC(O)CN1CCC(CNCc2cccc(Cl)c2)CC1 (stereo not given)
Measure Unit: %
Percent Effect: 14.58
--
Molecule: Cn1ccc2c(C(=O)NCCCN3CCCC3)cccc21
Measure Unit: %
Percent Effect: 16.97

Could you now look at the following molecule, please?
Asked: Can you look up the measured Percent Effect of CN(C)C(=O)CN1CCC2(COCc3cnc(-c4cccnc4)nc32)C1.O=C(O)C(F)(F)F.O=C(O)C(F)(F)F (stereo not given) for me?
Given back: 71.1

----------
System: Leishmania donovani
Experiment: Leishmania intramacrophage assay
Assay type: functional, organism-based
Parameters: scale not given: in the data most compounds retested in dose-response had high values
Conditions: 30.3 µM; […]
Screen size: about 69,000 compounds; about 1,000 (1.4%) showed an effect of 50% or more. The sample holds strong results, similar compounds and a random draw of the others, so the mix is not that of the screen.
# Percent Effect listing for each entry below
Could you give me the number in %? Just the number is fine.

# count of solved cases: 6
Compound: Cc1cs/c(=N/C(=O)c2csc(NCC(C)C)n2)[nH]1
Observed Result: 8.971

Compound: O=S(=O)(Cc1ccccc1CN1CC[C@H](CO)[C@H](O)C1)c1ccccc1
Observed Result: 22.14

Compound: O=C1CC(c2ccc(C(=O)O)cc2)c2ncn(-c3ccccc3F)c2N1 (stereo not given)
Observed Result: 26.03

Compound: Cc1oc(-c2nc(C#N)c(NC3CC3)o2)cc1S(=O)(=O)N1CCCC1
Observed Result: 1.943

Compound: N#Cc1cccnc1N1CCCC(CO)(Cc2ccccc2F)C1 (stereo not given)
Observed Result: 2.884

Compound: CCn1c(C)nc2cc(NC(=O)CC3CCN(S(C)(=O)=O)CC3)ccc21
Observed Result: 32.47

Asked: Can you look up the measured Percent Effect of `CCOC(=O)c1ccc(NC(=O)c2cc3c([nH]c2=O)CCCC3)cc1` for me?
Given back: 34.55

Asked: Can you look up the measured Percent Effect of `CN(C)S(=O)(=O)c1ccc(-c2nc(C#N)c(NC3CC3)o2)o1` for me?
Given back: 20.5

Asked: Can you look up the measured Percent Effect of CCc1noc(C(C)N2CCN(c3ncnc4sccc34)CC2)n1 (stereo not given) for me?
Given back: 17.92

Asked: Can you look up the measured Percent Effect of CN1CCN(C(=O)c2n[nH]c3c2CN(C2CCOC2)CC3)CC1 (stereo not given) for me?
Given back: 7.447

Asked: Can you look up the measured Percent Effect of `c1csc(CCNc2nc(-c3ccncc3)nc3c2CCNCC3)c1` for me?
Given back: 9.747

Asked: Can you look up the measured Percent Effect of Nc1cc(N2CCCC(CO)(Cc3ccccc3F)C2)nc(N)n1 (stereo not given) for me?
Given back: 94.26

Asked: Can you look up the measured Percent Effect of `Cc1cc(C(=O)N2CC[C@@]3(C[C@@H](NS(C)(=O)=O)CCO3)C2)no1` for me?
Given back: 13.02

----------
Tested on: Leishmania donovani
Test: Leishmania intramacrophage assay
Format: functional, organism-based
Parameters: scale not given: in the data most compounds retested in dose-response had high values
Conditions: 30.3 µM; […]
Screen size: about 69,000 compounds; about 1,000 (1.4%) showed an effect of 50% or more. The entries come from a sample that favours strong results as a whole.
Measurement Type: Percent Effect (%)
Could you give me the number in %? Just the number is fine.

# count of solved cases: 4
Molecule: Cc1cc(C(N)=O)c2c(Br)cccc2n1
Measurement Type: Percent Effect
Observed Result: -10.76
//
Molecule: O=S(=O)(NCc1ccnc(-n2ccnc2)c1)c1cncc(Cl)c1
Measurement Type: Percent Effect
Observed Result: -18.27
//
Molecule: O=c1[nH]cnc2c1CCN(S(=O)(=O)c1ccc(Cl)cc1)C2
Measurement Type: Percent Effect
Observed Result: 10.57
//
Molecule: Cc1cc2c(N)nc(=O)n(CC(=O)Nc3ccccc3)c2s1
Measurement Type: Percent Effect
Observed Result: 6.295

Asked: Can you look up the measured Percent Effect of `Cc1cc(CN(CC(N)=O)CC(C)C)on1` for me?
Given back: 34.94

Asked: Can you look up the measured Percent Effect of `COC(=O)COc1cc(NCc2c(C)noc2C)c(Cl)cc1C` for me?
Given back: 56.06

Asked: Can you look up the measured Percent Effect of `COc1ccc(CC(=O)N2CCC[C@@H](N)[C@@H]2c2ccccc2F)cc1.Cl` for me?
Given back: 50.59

Asked: Can you look up the measured Percent Effect of COCCC1(CNC(=O)NCC2CN(C)CCN2C)CCC1 (centres undefined) for me?
Given back: 8.791

Asked: Can you look up the measured Percent Effect of `O=C(NCCc1nccs1)[C@H](c1ccccc1)n1cnnn1` for me?
Given back: 10.58

Asked: Can you look up the measured Percent Effect of `OC1(Cn2ccnc2)CCN(C[C@]2(O)CCCN3CCCC[C@@H]32)CC1` for me?
Given back: -28.91

Asked: Can you look up the measured Percent Effect of `CC(C)c1cc(NCc2csc(C(C)C)n2)nc(N)n1` for me?
Given back: 50.61

Asked: Can you look up the measured Percent Effect of `CC[C@@]1(O)CCN(C(=O)CCc2cnn(C)c2)C[C@H]1O` for me?
Given back: 28.56

Asked: Can you look up the measured Percent Effect of `Cn1cc(CCCN2CCN(Cc3cccc(O)c3)CC2)cn1` for me?
Given back: 7.791

Asked: Can you look up the measured Percent Effect of `O=C(Nc1c(N2CCCC2)cccc1N1CCCC1)c1cnsn1` for me?
Given back: -91.54

Asked: Can you look up the measured Percent Effect of `CC(C)c1nc(CNc2ccc(CNS(C)(=O)=O)cc2)cs1` for me?
Given back: 21.12

Asked: Can you look up the measured Percent Effect of `NC(=O)c1ccc(OCCCN2C[C@H](C3CC3)[C@@H](N)C2)cc1` for me?
Given back: 42.52

Asked: Can you look up the measured Percent Effect of `COCC[C@]1(O)CCN(Cc2nc(C(C)C)cs2)C[C@H]1C` for me?
Given back: -0.9404

Asked: Can you look up the measured Percent Effect of `O=C(Nc1c(N2CCCC2)cccc1N1CCCC1)c1ccccn1` for me?
Given back: 56.83

Asked: Can you look up the measured Percent Effect of `O=C(CC1CCC2(CC1)CCN(Cc1nccs1)CC2)N1CC=CC1` for me?
Given back: -13.52

Asked: Can you look up the measured Percent Effect of CC(c1c(F)cccc1F)N1CCN(Cc2nccn2C)CC1 (centres undefined) for me?
Given back: 28.44

Asked: Can you look up the measured Percent Effect of `O=C(c1cnc(Nc2ccccc2)nc1)N1CCC(O)(CO)CC1` for me?
Given back: -16.52

----------
Tested on: Leishmania donovani
Assay: Leishmania intramacrophage assay
Assay type: functional, organism-based
Design: scale not given: in the data most compounds retested in dose-response had high values
Settings: 30.3 µM; […]
About 1,000 (1.4%) of roughly 69,000 compounds showed an effect of 50% or more. Shown is part of a subset that was picked to be rich in strong results.
# Percent Effect listing for each entry below

Asked: Can you look up the measured Percent Effect of `COc1cccc(Nc2nc(N3CCCC3)nc3c2CNCC3)c1.Cl` for me?
Given back: 98.87%

Asked: Can you look up the measured Percent Effect of `CCOc1nc2cnccc2n(CC(=O)NCc2ccco2)c1=O` for me?
Given back: -11.31%

Asked: Can you look up the measured Percent Effect of `CN(C)C[C@@H]1[C@H]2CN(C(=O)c3cc(=O)[nH]c4ccc(F)cc34)C[C@@H]12` for me?
Given back: 55.47%

Asked: Can you look up the measured Percent Effect of CC(=O)Nc1nc(C(=O)N2CCCC2c2noc(C3CC3)n2)cs1 (configuration not stated) for me?
Given back: 0.7706%

Asked: Can you look up the measured Percent Effect of CCN1CC(COC(=O)c2ccc(N(C)C)cc2F)CC1=O (configuration not stated) for me?
Given back: 23.8%

Asked: Can you look up the measured Percent Effect of CC(C)NC(=O)c1ccc2nnc(C3CN(C)CCN3C)n2c1.O=C(O)C(F)(F)F.O=C(O)C(F)(F)F (configuration not stated) for me?
Given back: -3.873%

Asked: Can you look up the measured Percent Effect of `CCn1nc2c(cc1=O)CN(c1ncnc3ccsc13)CC2` for me?
Given back: 42.12%

Asked: Can you look up the measured Percent Effect of `Cc1nc(CN2CCc3nc(N4CCCC4)nc(NC(C)C)c3C2)cs1` for me?
Given back: 51.28%

Asked: Can you look up the measured Percent Effect of `NC(=O)NCCC(=O)N1CCC(c2cc(Cc3ccccc3)n[nH]2)CC1` for me?
Given back: -20.51%

Asked: Can you look up the measured Percent Effect of `CCOCCNc1nc(-c2ccncc2)nc2c1CCNCC2` for me?
Given back: -3.835%

Asked: Can you look up the measured Percent Effect of `COc1cccc2c1ccn2CCC(=O)Nc1c2c(nn1C)CSC2` for me?
Given back: -9.12%

Asked: Can you look up the measured Percent Effect of CCc1nc(CN(C)C2CCN(CCc3ccncc3)C2)no1 (configuration not stated) for me?
Given back: 23.01%

Asked: Can you look up the measured Percent Effect of CC(=O)N1CCC(c2cncc(N3CCC(O)C3)n2)CC1 (configuration not stated) for me?
Given back: 8.685%

Asked: Can you look up the measured Percent Effect of Cc1cccc(C(=O)N2CCCCC2c2nc3cc(F)ccc3[nH]2)n1 (configuration not stated) for me?
Given back: 32.48%

Asked: Can you look up the measured Percent Effect of `CN1CCC(N(CCc2ccccc2)C(=O)c2cc[nH]c2)CC1` for me?
Given back: 69.36%

Asked: Can you look up the measured Percent Effect of OC(CNC1CCSCC1)c1cccc(OCc2ccccc2)c1 (configuration not stated) for me?
Given back: 77.88%

Asked: Can you look up the measured Percent Effect of `Cc1cccc(SC2CCN(C(=O)CCCS(N)(=O)=O)CC2)c1` for me?
Given back: 24.28%
